target: UniProt:P25103
Sequence (P25103 whole entry): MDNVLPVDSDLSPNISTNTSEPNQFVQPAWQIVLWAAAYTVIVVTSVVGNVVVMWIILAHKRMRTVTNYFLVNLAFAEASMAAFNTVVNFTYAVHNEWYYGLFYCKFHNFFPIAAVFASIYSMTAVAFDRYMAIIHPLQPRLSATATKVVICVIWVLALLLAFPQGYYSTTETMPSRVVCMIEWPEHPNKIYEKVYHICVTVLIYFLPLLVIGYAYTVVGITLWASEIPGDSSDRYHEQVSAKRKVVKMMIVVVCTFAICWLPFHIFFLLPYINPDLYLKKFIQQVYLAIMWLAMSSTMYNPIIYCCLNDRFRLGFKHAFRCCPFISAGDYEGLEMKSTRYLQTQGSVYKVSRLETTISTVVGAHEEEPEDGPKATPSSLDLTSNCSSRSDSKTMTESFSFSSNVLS
pKi: −log10 of the molar value.
parameter measured: pKi

>>> test_result("CC(=O)NC1(c2ccccc2)CCN(C[C@@H]2C[C@@]2(C(=O)N(C)Cc2ccccc2)c2ccc(Cl)c(Cl)c2)CC1")
6.89
>>> test_result("CN(Cc1ccc(F)cc1)C(=O)[C@@]1(c2ccc(Cl)c(Cl)c2)C[C@H]1CN1CCN(S(=O)(=O)N(C)C)CC1")
6.47

---

assay: Apparent permeability of the compound in human Caco2 cells; format: ADME, cell-based; conditions: caco-2
Field 'label' (enum: fulfilled / not fulfilled). Set to fulfilled when Papp is strictly under 1 ×10⁻⁶ cm/s; else not fulfilled.

>>> cat("CN(Cc1ccc(F)cc1)C(=O)[C@@]1(c2ccc(Cl)c(Cl)c2)C[C@H]1CN1CCN(S(=O)(=O)N(C)C)CC1")
"not fulfilled"
>>> cat("CNC(=O)NC1(c2ccccc2)CCN(C[C@@H]2C[C@@]2(C(=O)N(C)Cc2ccccc2)c2ccc(Cl)c(Cl)c2)CC1")
"fulfilled"
>>> cat("CC(=O)NC1(c2ccccc2)CCN(C[C@@H]2C[C@@]2(C(=O)N(C)Cc2ccccc2)c2ccc(Cl)c(Cl)c2)CC1")
"not fulfilled"
>>> cat("CN(Cc1ccccc1)C(=O)[C@@]1(c2ccc(Cl)c(Cl)c2)C[C@H]1CN1CCC(c2ccccc2)(N(C)C(=O)C(N)=O)CC1")
"not fulfilled"
>>> cat("CN(Cc1ccccc1)C(=O)[C@@]1(c2ccc(Cl)c(Cl)c2)C[C@H]1CN1CCC(C(=O)N2CCCCC2)(c2ccccc2)CC1")
"fulfilled"
>>> cat("CN(Cc1ccc(F)cc1)C(=O)[C@@]1(c2ccc(Cl)c(Cl)c2)C[C@H]1CN1CCN(CC(=O)N2CCCC2)CC1")
"not fulfilled"
>>> cat("CN(Cc1ccc(F)cc1)C(=O)[C@@]1(c2ccc(Cl)c(Cl)c2)C[C@H]1CN1CCN(C(=O)CN2CCOCC2)CC1")
"not fulfilled"
>>> cat("CC(=O)N(C)C1(c2ccccc2)CCN(C[C@@H]2C[C@@]2(C(=O)N(C)Cc2ccccc2)c2ccc(Cl)c(Cl)c2)CC1")
"fulfilled"
